Consider the following compounds; for each one, report its growth inhibition.
experiment: NCI Yeast Anticancer Drug Screen. Data for the sgs1 mgt1 strain (AID 161);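 note: 0% = growth of cultures given vehicle only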; settings: S. cerevisiae sgs1 mgt1 strain, at 50.0 µM, stronger effect = higher value
This is part of a sample that, as a whole, favours compounds with a hit. Of some 79,000 tested, about 15% had one in any assay.
Numbers only, in %.

{"COMPOUND": "NCCNC(=O)Cc1cccc2ccccc12", "NUMERIC_READOUT": -5.15}
{"COMPOUND": "O=C(Cl)Cc1ccccc1[N+](=O)[O-]", "NUMERIC_READOUT": 12.4}
{"COMPOUND": "CCCCN(CCCC)CCCCCCCCCCCO", "NUMERIC_READOUT": 34.5}
{"COMPOUND": "CCOC(=O)N1CCN(P(=O)(Nc2ccc3nc(NC(=O)OC)[nH]c3c2)Oc2ccccc2)CC1 (stereo unspecified)", "NUMERIC_READOUT": 0.55}
{"COMPOUND": "Cn1c(=O)c2[nH]c(NCc3ccccc3)nc2n(C)c1=O", "NUMERIC_READOUT": 0.7}

Field: growth inhibition. Fill in for each record below.
1. CCOC(=O)Cc1ccc(OC)c(OC)c1
2. CCOc1ccc(NC(=O)Oc2ccc(-c3ccccc3)cc2)cc1
3. CCCCN(CCCC)CC(O)c1cc(-c2c(Cl)cccc2Cl)nc2c(Cl)cc(Cl)cc12 (stereo unspecified)
4. CC1=C(C(=O)Nc2ccccc2C)C(c2ccc(C3C(C(=O)Nc4ccccc4C)=CNC=C3C(=O)Nc3ccccc3C)cc2)C(C(=O)Nc2ccccc2C)=C(C)N1
5. O=C(Nc1cc(Cl)ccc1Cl)c1ccccc1Cl
6. CC1(c2ccc3cccc(F)c3c2)OC(=O)c2ccccc21 (stereo unspecified)

OUTPUT:
3.9
24.4
55
28.9
14.8
-2.95
